Each recorded value in this set is attributed to PubChem BioAssay (NCATS).

- assay comment: Quantitative High-Throughput drug screen in 47 multiple myeloma cell lines against the NCATS MIPE library collection: EJM_DSMZ cell viability assay (AID 1918926; also: nearly all actives have a fitted effect of over 30% in size)
- assay context: EJM myeloma cell viability, CellTiter-Glo ATP, 48 h; series mostly up to 45.8 µM
Records with an inconclusive call do not appear. Activity calls are given as the source filed them. Calls follow the shape of the dose curve; as a rule, active = well fitted cell-killing curve with a large enough effect; inconclusive = small, poorly fitted or top-dose-only effect, or effect the other way; inactive = no such curve, though single readings can be large or run the other way.
Your reply should match one of these outcome classes. active, inactive

Worked cases, answers included:
- compound: "COCCNCCCn1c(C(=O)CF)c(-c2ccc(C)cc2)c2c(N)ncnc21"
  class label: "active"
- compound: "O=C1CCC(N2C(=O)c3ccccc3C2=O)C(=O)N1 (stereo unspecified)"
  class label: "inactive"
- compound: "Cc1cn[nH]c1"
  class label: "active"
- compound: "CCc1cc(Nc2nccc(-c3c(-c4ccc(OC)c(C(=O)Nc5c(F)cccc5F)c4)nc4ccccn34)n2)c(OC)cc1N1CCC(N2CCN(S(C)(=O)=O)CC2)CC1"
  class label: "active"
- compound: "NC(=O)C1CCCc2c1[nH]c1ccc(Cl)cc21 (stereo unspecified)"
  class label: "inactive"

Okay, next one:
State the result this test recorded for O=c1[nH]cnc2[nH]ncc12 .
inactive

---

- assay comment: qHTS of pediatric cancer cell lines to identify multiple opportunities for drug repurposing: Primary screen for SK-N-MC cells (AID 1347093)
- assay context: SK-N-MC viability, CellTiter-Glo luminescence, 48 h; series mostly up to 46 µM
Results filed as inconclusive are left out. The source made the active and inactive calls. Calls follow the shape of the dose curve; as a rule, active = well fitted cell-killing curve with a large enough effect; inconclusive = small, poorly fitted or top-dose-only effect; inactive = no such curve, though single readings can be large or run the other way.
Please reply with one of these outcomes: true (1) (active), false (0) (inactive)

- compound: "Oc1cccc(-c2nc(N3CCOCC3)c3oc4ncccc4c3n2)c1"
  class label: "true (1)"
- compound: "C[C@@H]1CN(Cc2ccc(F)cc2)[C@@H](C)CN1C(=O)c1cc2c(C(=O)C(=O)N(C)C)cn(C)c2cc1Cl"
  class label: "true (1)"
- compound: "COc1ccc(C2=N[C@H](c3ccc(Cl)cc3)[C@H](c3ccc(Cl)cc3)N2C(=O)N2CCNC(=O)C2)c(OC(C)C)c1"
  class label: "true (1)"
- compound: "NS(=O)(=O)c1cc2c(cc1Cl)NC=NS2(=O)=O"
  class label: "false (0)"
- compound: "Oc1ccc(C2CNCCc3c2cc(O)c(O)c3Cl)cc1 (stereo not given)"
  class label: "false (0)"
- compound: "CC(=O)NC(C)c1ccc(Oc2ccc(OC(C)C)cc2)cc1 (stereo not given)"
  class label: "true (1)"

// param item: CO[C@@H]1[C@H](N(C)C(=O)c2ccccc2)C[C@H]2O[C@]1(C)n1c3ccccc3c3c4c(c5c6ccccc6n2c5c31)C(=O)NC4 ; yields the recorded call
true (1)

Identify the outcome logged in this assay for the compound shown: NC(=O)c1ccc(-c2nc(-c3ccc4c(c3)OCO4)c(-c3ccccn3)[nH]2)cc1
false (0)

Please state the recorded outcome for this compound: Cc1cnc(Nc2ccc(OCCN3CCCC3)cc2)nc1Nc1cccc(S(=O)(=O)NC(C)(C)C)c1
true (1)

Returns: the outcome recorded for CCCS(=O)(=O)Nc1ccc(F)c(C(=O)c2c[nH]c3ncc(-c4ccc(Cl)cc4)cc23)c1F in this assay.
true (1)

Would you mind telling me which call this test gave Cc1cnc(NC(=O)C2=C(O)c3ccccc3S(=O)(=O)N2C)s1 ?
false (0)

---

- assay comment: qHTS Screen of the MIPE 4.0 Collection Against Ewings Sarcoma (EW8) (AID 1259255); also: nearly all actives have a fitted effect of over 35% in size; also: potency is read from the fitted curve at half-maximal effect;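 as to viability: 100% = DMSO-treated cells and 0% = medium-only wells without cells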
- assay context: EW8 Ewing sarcoma viability, CellTiter-Glo, 48 h; series mostly up to 45.8 µM
Results filed as inconclusive are left out. Activity calls are given as the source filed them. The call rests on the fitted dose curve; in most records, active means well fitted inhibition curve with a large enough effect; inconclusive means small, poorly fitted or top-dose-only effect; inactive means no such curve, though single readings can be large or run the other way.
property measured: Potency

Here is how some compounds turned out for Potency.
- compound: "Cc1c(CCOc2ccc(C(=O)O)cc2)c2cc(Cl)ccc2n1C(c1ccccc1)c1ccccc1"
  Potency: "14.8 µM (active)"
- compound: "O=C(O)[C@@H](c1ccc(OCc2ccc3ccccc3n2)cc1)C1CCCC1"
  Potency: "inactive"
- compound: "CCC(C)N(C)C(=O)c1cc2ccccc2c(-c2ccccc2Cl)n1 (stereo unspecified)"
  Potency: "inactive"
- compound: "N#Cc1ccc(C(c2ccc(C#N)cc2)n2cncn2)cc1"
  Potency: "20.9 µM (active)"
- compound: "Cc1c(CN2CCN(C(=O)C(C)C)CC2)sc2c(N3CCOCC3)nc(-c3cnc(N)nc3)nc12"
  Potency: "0.105 µM (active)"

State the recorded Potency for every item in the following list.
1. Cc1cc(Nc2nc(N[C@@H](C)c3ncc(F)cn3)ncc2Cl)n[nH]1
2. CCN(CC)CCCC(C)Nc1ccnc2cc(Cl)ccc12 (stereo unspecified)
3. CC(C)(Sc1ccc(CCN(CCCCC2CCCCC2)C(=O)NC2CCCCC2)cc1)C(=O)O
4. CN1CCN(CCCN2c3ccccc3Sc3ccc(C(F)(F)F)cc32)CC1
5. CS(=O)(=O)Oc1ccc2c(NC(N)=O)c(C(=O)c3ccc(Cl)cc3Cl)oc2c1
6. OC(CN1CCC(Cc2ccc(F)cc2)CC1)c1ccc(Cl)cc1 (stereo unspecified)

1: 26.4 µM (active); 2: inactive; 3: 4.69 µM (active); 4: 23.5 µM (active); 5: 23.5 µM (active); 6: inactive

---

- assay comment: HTS Assay for Allosteric Antagonists of the Human D2 Dopamine Receptor: Hit Validation in HTRF (AID 624455);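 also: stable D1 dopamine receptor cell line scored for blocking the D1 response; % is scaled to controls: 0 for no effect and ±100 for the full control effect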
- assay context: Cells stably expressing D1 dopamine receptor, inhibition mode; series mostly up to 46.1 µM
Inconclusive results are not listed. Activity calls are given as the source filed them. Calls come from the whole dose curve; as a rule, active = well fitted inhibition curve with a large enough effect; inconclusive = small, poorly fitted or top-dose-only effect; inactive = no such curve, though single readings can be large or run the other way.
Could you please pick one outcome from this set? active, inactive

- compound: "O=C1CCC(N2C(=O)c3ccccc3C2=O)C(=O)N1 (stereo not given)"
  class label: "inactive"
- compound: "Cc1cn[nH]c1"
  class label: "inactive"
- compound: "OC(CN1CCC(Cc2ccc(F)cc2)CC1)c1ccc(Cl)cc1 (stereo not given)"
  class label: "inactive"
- compound: "Cc1ccc(N(CC2=NCCN2)c2cccc(O)c2)cc1"
  class label: "inactive"
- compound: "N=c1nc(N2CCCCC2)cc(N)n1O"
  class label: "inactive"

For C[C@]12CCC(=O)C=C1CC[C@@H]1[C@@H]2[C@@H](O)C[C@@]2(C)[C@H]1CC[C@]2(O)C(=O)CO , which call appears in the assay record?
inactive

Record request — test call for Cc1cccc(-c2[nH]c(C(C)(C)C)nc2-c2ccc3nccnc3c2)n1
inactive

Per the assay record, what outcome was assigned to Nc1nc2ccc(OC(F)(F)F)cc2s1 ?
inactive

Hi, sorry to bother you, what did the test record for O=C1CCc2cc(OCCCCc3nnnn3C3CCCCC3)ccc2N1 ?
inactive

For this compound, state the assay outcome: O=NN(CCCl)C(=O)NCCCl
inactive

How did this test come out for Nc1ccc(S(=O)(=O)Nc2ccnn2-c2ccccc2)cc1 ?
inactive

Please share the test call associated with C1COC(NC(C2CC2)C2CC2)=N1 .
inactive

Short answer needed: outcome of this test for N[C@@H]1CONC1=O ?
inactive

How did this test come out for Cc1oncc1C(=O)Nc1ccc(C(F)(F)F)cc1 ?
inactive

Please indicate how the test categorized CC(=O)Oc1ccccc1C(=O)O .
inactive

Record request — test call for NS(=O)(=O)c1cc2c(cc1Cl)NC=NS2(=O)=O
inactive

How was Cc1[nH]c(=O)c(C#N)cc1-c1ccc2nccn2c1 classified in this test?
inactive

Please let me know the test result on file for Nc1ncnc2nc(-c3ccc(N4CCOCC4)nc3)cc(-c3cccc(Br)c3)c12 .
inactive

For this compound, state the assay outcome: CC(C)C[C@H](NC(=O)[C@@H](O)[C@H](N)Cc1ccccc1)C(=O)O
inactive

Look up the recorded call for CCC(C)N(C)C(=O)c1cc2ccccc2c(-c2ccccc2Cl)n1 (stereo not given) in this test.
inactive

Returns: the outcome recorded for Cc1cc2c(C(C)C)c(O)c(O)c(C=O)c2c(O)c1-c1c(C)cc2c(C(C)C)c(O)c(O)c(C=O)c2c1O in this assay.
inactive

---

- assay comment: qHTS profiling of the MIPE4 collection as inhibitors of Plasmodium falciparum (DD2) proliferation (AID 743345)
- assay context: P. falciparum Dd2 in erythrocytes, SYBR Green DNA, 72 h; at 28.5 µM (top of the series) unless noted
- Procedure: Plasmodium falciparum is a virulent malarial parasite that kills 1-2 million people worldwide each year. […] Because mature erythrocytes lack DNA, only Plasmodium-derived DNA is detected. The SYBR Green viability assay was adapted from a method described previously (Plouffe et al., 2008). […] The following morning, fluorescence intensity at 485(14) nm excitation and 535(25) nm emission wavelengths was measured on an EnVision (Perkin Elmer) plate reader. […]
Could you please report measured parasite growth remaining, % of DMSO control (lower = more inhibition) for the items listed next?
One number for each entry, in %.

- compound: "CC(C)OC(=O)C1=CN(C(=O)c2ccc(F)c(F)c2)CC(C)(C)c2c1[nH]c1ccccc21"
  unit string: "%"
  number: 44.6
- compound: "NC(=O)c1ccc(-c2nc(-c3ccc4c(c3)OCCO4)c(-c3ccccn3)[nH]2)cc1"
  unit string: "%"
  number: 18.9

Please supply parasite growth remaining, % of DMSO control (lower = more inhibition) for each of the following items, keeping them in order.
1. NCCCC(N)(C(=O)O)C(F)F (stereo not given)
2. CNC(=O)c1ccc(C)c(-n2c(C)cc(OCc3ccc(F)cc3F)c(Br)c2=O)c1
3. CCc1ccc(CCOc2ccc(CC3SC(=O)NC3=O)cc2)nc1 (stereo not given)
4. Oc1ccc(C2CNCCc3c2cc(O)c(O)c3Cl)cc1 (stereo not given)
5. COc1cccc2cc(-c3nc(C4CCC(C(=O)O)CC4)n4ncnc(N)c34)[nH]c12 (stereo not given)

1. 95.9
2. 84.9
3. 90.1
4. 65.8
5. 16.6

Value sought for every listed compound: parasite growth remaining, % of DMSO control (lower = more inhibition).
1. CC1(C)SCCN(S(=O)(=O)c2ccc(OCC#CCO)cc2)[C@@H]1C(=O)NO
2. CN1CCN(CCCN2c3ccccc3Sc3ccc(C(F)(F)F)cc32)CC1
3. Cc1cccc(-c2[nH]c(C(C)(C)C)nc2-c2ccc3nccnc3c2)n1

1: 66; 2: 97.5; 3: 47.6

Hi! Can you tell me parasite growth remaining, % of DMSO control (lower = more inhibition) for each of these compounds?
1. Cn1c(=O)c(F)c(Nc2ccc(I)cc2F)c2c(=O)n(C[C@@H](O)CO)cnc21
2. O=C(O)COCCN1CCN(C(c2ccccc2)c2ccc(Cl)cc2)CC1 (stereo not given)
3. COc1ccc(CCN2CCN(CCCc3ccccc3)CC2)cc1OC

86.9
104
95.6

// each listed compound needs a value for parasite growth remaining, % of DMSO control (lower = more inhibition)
1. COc1ccc(COc2cc3oc(=O)c4cc(C(C)O)ccc4c3cc2OC)cc1 (stereo not given)
2. Cn1cnc([N+](=O)[O-])c1Sc1ncnc2nc[nH]c12
3. CC(C)(N)C(=O)N[C@H](COCc1ccccc1)C(=O)N1CCC2(CC1)CN(S(C)(=O)=O)c1ccccc12
4. CCCn1c(=O)c2[nH]c(C34CC5CC3C[C@@H](C5)C4)nc2n(CCC)c1=O
5. O=C1CCc2cc(OCCCCc3nnnn3C3CCCCC3)ccc2N1
6. CCCCNc1cc(C(=O)O)cc(S(N)(=O)=O)c1Oc1ccccc1
7. Cn1cnc2c(F)c(Nc3ccc(Br)cc3Cl)c(C(=O)NOCCO)cc21

1. 77.1
2. 87.7
3. 10.9
4. 77.4
5. 99.1
6. 99.3
7. 95.9
